Provenance of the data: PubChem BioAssay AID624330

measurementTarget: Rac GTPase-activating protein 1 (Homo sapiens) (UniProt Q9H0H5)
Sequence (Q9H0H5 whole entry, looked up): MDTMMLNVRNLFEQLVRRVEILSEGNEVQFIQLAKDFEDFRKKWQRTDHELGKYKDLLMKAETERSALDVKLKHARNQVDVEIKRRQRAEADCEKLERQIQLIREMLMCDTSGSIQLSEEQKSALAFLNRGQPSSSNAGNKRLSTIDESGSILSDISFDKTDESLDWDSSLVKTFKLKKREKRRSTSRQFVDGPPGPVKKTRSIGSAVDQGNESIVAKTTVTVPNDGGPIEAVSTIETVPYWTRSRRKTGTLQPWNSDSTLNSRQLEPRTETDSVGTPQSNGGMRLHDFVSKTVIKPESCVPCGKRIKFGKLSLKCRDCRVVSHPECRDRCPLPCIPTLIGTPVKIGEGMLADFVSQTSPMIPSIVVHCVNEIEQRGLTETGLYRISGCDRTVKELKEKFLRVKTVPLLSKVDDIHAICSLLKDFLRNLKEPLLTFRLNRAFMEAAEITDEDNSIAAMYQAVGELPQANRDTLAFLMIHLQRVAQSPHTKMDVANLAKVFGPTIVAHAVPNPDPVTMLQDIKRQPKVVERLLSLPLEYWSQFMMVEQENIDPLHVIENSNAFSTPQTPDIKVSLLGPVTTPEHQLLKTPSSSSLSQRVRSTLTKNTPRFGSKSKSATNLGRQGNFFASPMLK
procedureDetails: blockers of MgcRacGAP-driven Rac1 GTP hydrolysis – biochemical, ADP Hunter fluorescence, primary and confirmatory, confirmation (AID 624330);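 note: fluorescence reports GDP produced by GAP-driven GTP hydrolysis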
conditionNotes: MgcRacGAP-stimulated Rac1 GTP hydrolysis, at 30 µM, hits give high values, GST-tagged Rac1 F28L mutant substrate
The whole screen tested about 340,000 compounds, of which about 2,100 (0.62%) were called active. The list is a sample of the results. Results with a measured potency or affinity are listed apart.
Threshold rule: inhibition greater than or equal to 10% is True; below that, False.

• Brc1cc2[nH]cnc2c2ccccc12 = False
• CC1=NN(c2ccccc2)C(=O)/C1=C/N(C)C = False
• CCCCCCCCCCCCCCCC[N+](C)(C)CC = True
• COc1cc(/C=N/N2C(C)CCCC2C)cc(Br)c1O (centres undefined) = True
• N#C/C(=N\Nc1cccc(F)c1)C(=N)N1CCCCCC1 = True
• CCc1n[nH]c(=S)n1/N=C/c1cc(Br)c(O)c(OC)c1 = True
• CC(=O)Nc1ccc(S(=O)(=O)c2ccc(C)cc2)cc1 = True
• CCOC(CN=c1nc(N(C)C)ss1)OCC = True
• C/C(=N\Nc1ccc(S(=O)(=O)N2CCCCC2)cn1)c1cccc(Br)c1 = False
• CCCCCCCCCCCCCCCC[N+](C)(C)CCl = True
• COc1ccc(C(=O)OCC(=O)N2CCN(C(=O)c3ccco3)CC2)cc1OC = False
• COc1ccc2[nH]c(C)cc(=O)c2c1 = True
• CCOc1cccc(/C=N/Nc2ccc(S(=O)(=O)N(CC)CC)cn2)c1O = False
• COc1cc(/C=N/NC(=O)c2cccs2)ccc1O = False
• CC1=C(C(=O)Nc2ccccc2C(=O)NCCCOC(C)C)SCCO1 = False
• COc1cc2ccc(=O)oc2cc1O = True
• COc1cc2nc(NC(=O)c3ccc(Cl)cc3)sc(=O)c2cc1OC = True
• CCOC(=O)Cn1nnnc1CN1CCN(c2ccc(OC)cc2)CC1 = True
• OCCN1CCN(CCCN2c3ccccc3Sc3ccc(C(F)(F)F)cc32)CC1 = False
• Cc1ccc(/C=C/C(=O)OCC(=O)NCCN2C(=O)CSC2=O)o1 = False
• C=CCn1c(SCC(=O)NC2(C#N)CCCCC2)nnc1-c1ccncc1 = False
• OCCN1CCN(C(=S)Nc2cccc(C(F)(F)F)c2)CC1 = True
• CC(C(=O)NCc1ccc(F)cc1)c1ccc([N+](=O)[O-])cc1 (centres undefined) = False
• CCN(CC)S(=O)(=O)c1ccc(N/N=C/c2cccnc2)nc1 = False
• COCC(C)n1c(C)cc(C(=O)CN2c3cccc4cccc(c34)S2(=O)=O)c1C (centres undefined) = False
• C/C(CC(=O)Nc1ccc(N(C)C)cc1)=N\NC(=O)c1ccc(Cl)cc1Cl = True
• N#Cc1ccccc1NS(=O)(=O)c1cc2c3c(c1)CCC(=O)N3CCC2 = False
• COc1cccc(N(CC(=O)NC2CCCCC2)C(=O)Cn2nnc(-c3ccc(C)o3)n2)c1 = False
• C/C(CC(=O)Nc1ccc2c(c1)OCCO2)=N\NC(=O)c1ccc([N+](=O)[O-])cc1Cl = False
• Oc1ccc2c(c1)c1ccccc1c1ncccc21 = True
• COc1cccc(/C(C)=N/Nc2ccc(S(=O)(=O)N3CCCCC3)cn2)c1 = False
• Cc1nnc(C)n1/N=C/c1cc(Br)cc(Br)c1O = True
• COc1cccc(/C=N/NC(=O)CNC(=O)c2ccco2)c1O = True
• N#Cc1ccc(Cl)cc1NC(=O)COC(=O)[C@H](CCC(N)=O)NC(=O)c1ccc(F)cc1 = False
• CN(Cc1ccc(Cl)cc1Cl)C(=O)C1CSC2(C)CCC(=O)N12 (centres undefined) = False
• COc1ccc(Cn2nnnc2CN2CCOCC2)cc1 = False
• COc1ccc(Cc2c3cc(OC)c(OC)cc3cc[n+]2C)cc1OC = False
